target: α1β2(N265S)γ2L GABAAR (Rattus norvegicus, UniProt P62813+P63138, N289S); conditions: read-out: KCath (estimated affinity of (+)-catharanthine for the resting receptor); β2(N265S); low GABA (PA ~0.2); Eq. 1, NCath = 2; mean ± SEM, 5 oocytes
Sequence (P62813 28-455): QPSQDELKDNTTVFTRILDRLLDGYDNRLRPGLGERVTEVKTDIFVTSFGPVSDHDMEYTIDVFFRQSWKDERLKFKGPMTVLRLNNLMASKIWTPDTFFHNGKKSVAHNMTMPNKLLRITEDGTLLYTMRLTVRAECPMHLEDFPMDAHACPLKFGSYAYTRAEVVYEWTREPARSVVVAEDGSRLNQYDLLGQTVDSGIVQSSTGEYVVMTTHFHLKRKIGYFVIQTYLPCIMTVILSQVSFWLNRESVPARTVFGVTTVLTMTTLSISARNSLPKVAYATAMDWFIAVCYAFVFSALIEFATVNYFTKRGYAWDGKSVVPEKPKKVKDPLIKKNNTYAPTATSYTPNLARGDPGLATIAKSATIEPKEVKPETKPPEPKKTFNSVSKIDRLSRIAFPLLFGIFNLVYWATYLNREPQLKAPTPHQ
Sequence (P63138 25-474 N289S limits assumed): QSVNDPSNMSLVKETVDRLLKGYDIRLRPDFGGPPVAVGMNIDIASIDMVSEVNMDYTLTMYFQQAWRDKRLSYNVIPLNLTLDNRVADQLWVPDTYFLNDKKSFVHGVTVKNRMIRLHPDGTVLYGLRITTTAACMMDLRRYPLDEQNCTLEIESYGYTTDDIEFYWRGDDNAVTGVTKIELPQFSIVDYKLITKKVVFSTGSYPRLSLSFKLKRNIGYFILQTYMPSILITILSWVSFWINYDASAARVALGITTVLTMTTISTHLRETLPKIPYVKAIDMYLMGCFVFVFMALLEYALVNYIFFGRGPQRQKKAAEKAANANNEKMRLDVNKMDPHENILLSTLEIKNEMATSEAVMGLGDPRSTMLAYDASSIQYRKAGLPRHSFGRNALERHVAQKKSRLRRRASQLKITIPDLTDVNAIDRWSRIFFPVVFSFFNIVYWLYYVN
Recorded Metric: pKd
Just so you know, pKd here is -log10 of the concentration in molar units; reply with that number alone.

Data request, read-out pKd, for CCC1=C[C@@H]2CN3CCc4c([nH]c5ccccc45)[C@@](C(=O)OC)(C2)[C@@H]13 [(+)-catharanthine, (+)-3,4-didehydrocoronaridine]
4.62

----------
biological target: α1β2(K279A)γ2L GABAAR (Rattus norvegicus, UniProt P62813+P63138, K303A); details: β2(K279A); absence of GABA; Hill equation fit
Recorded Metric: pEC50
Remember the convention: pEC50 equals -log10 of concentration in molar.

# get_value(readout='pEC50', item= CCC1=C[C@@H]2CN3CCc4c([nH]c5ccccc45)[C@@](C(=O)OC)(C2)[C@@H]13 [(+)-catharanthine, (+)-3,4-didehydrocoronaridine] )
4.87
